Hey, just so you know, these numbers are from ChEMBL document CHEMBL5724914.

assay: The drug is tested on Z-023 corresponding to metagenome with ENA study accession number: PRJEB37062 and ENA sample accession number: ERS12561822 for biotransformation under anaerobic condition. The drug concentrations were measured over 9 timepoints collected between 0 and 24 hours of incubation by liquid-chromatography-coupled mass spectrometry (LC–MS); conditions: 2 µM; further: call rule not given here
observed property: Bacterial Biotransformation

[[record]]
molecule = "COc1cc(NC(C)CCCN)c2ncccc2c1.O=P(O)(O)O.O=P(O)(O)O (stereo not given) [PRIMAQUINE PHOSPHATE]"
observed = "Compound NOT metabolized"

[[record]]
molecule = "COc1cc2nc(N3CCN(C(=O)C4CCCO4)CC3)nc(N)c2cc1OC (stereo not given)"
observed = "Compound NOT metabolized"

[[record]]
molecule = "CCN(CC)CCNC(=O)c1cc(S(C)(=O)=O)ccc1OC [TIAPRIDE]"
observed = "Compound NOT metabolized"

[[record]]
molecule = "O=C(O)c1cc(/N=N/c2ccc(S(=O)(=O)Nc3ccccn3)cc2)ccc1O"
observed = "Compound metabolized"

[[record]]
molecule = "CC(=O)OCC(=O)NCCCOc1cccc(CN2CCCCC2)c1 [ROXATIDINE ACETATE]"
observed = "Compound metabolized"

[[record]]
molecule = "CCN(CC)C(=O)C1(c2ccccc2)CC1CN (stereo not given)"
observed = "Compound NOT metabolized"

[[record]]
molecule = "O=C1C(CC[S+]([O-])c2ccccc2)C(=O)N(c2ccccc2)N1c1ccccc1 (stereo not given)"
observed = "Compound metabolized"

[[record]]
molecule = "CCS(=O)(=O)CCn1c([N+](=O)[O-])cnc1C"
observed = "Compound metabolized"

[[record]]
molecule = "COC(=O)C(c1ccccc1)C1CCCCN1 (stereo not given) [METHYLPHENIDATE]"
observed = "Compound metabolized"

[[record]]
molecule = "CC(C)[C@H]1CC[C@H](C(=O)N[C@H](Cc2ccccc2)C(=O)O)CC1 [NATEGLINIDE]"
observed = "Compound metabolized"

[[record]]
molecule = "COc1ccccc1OCCNCC(O)COc1cccc2[nH]c3ccccc3c12 (stereo not given)"
observed = "Compound metabolized"

[[record]]
molecule = "CCOc1ccccc1OCCN[C@H](C)Cc1ccc(OC)c(S(N)(=O)=O)c1.Cl [TAMSULOSIN HYDROCHLORIDE]"
observed = "Compound metabolized"

[[record]]
molecule = "CCCC(C)(COC(N)=O)COC(=O)NC(C)C (stereo not given)"
observed = "Compound metabolized"

[[record]]
molecule = "CCc1oc2ccccc2c1C(=O)c1cc(Br)c(O)c(Br)c1"
observed = "Compound NOT metabolized"

[[record]]
molecule = "CCCN1C[C@H](CSC)C[C@@H]2c3cccc4[nH]cc(c34)C[C@H]21.CS(=O)(=O)O [PERGOLIDE MESYLATE]"
observed = "Compound NOT metabolized"

[[record]]
molecule = "COc1cc(C(=O)NCc2ccc(OCCN(C)C)cc2)cc(OC)c1OC [TRIMETHOBENZAMIDE]"
observed = "Compound NOT metabolized"

[[record]]
molecule = "CCOc1ccc2nc(S(N)(=O)=O)sc2c1 [ETHOXZOLAMIDE]"
observed = "Compound NOT metabolized"

[[record]]
molecule = "COc1ccc(Cc2nccc3cc(OC)c(OC)cc23)cc1OC"
observed = "Compound metabolized"

[[record]]
molecule = "CSc1ccc2c(c1)C(N1CCN(C)CC1)Cc1ccccc1S2.O=C(O)/C=C\\C(=O)O (stereo not given)"
observed = "Compound NOT metabolized"

[[record]]
molecule = "Cc1cc2c(s1)Nc1ccccc1N=C2N1CCN(C)CC1"
observed = "Compound NOT metabolized"

[[record]]
molecule = "CC(C)(C)NC[C@H](O)COc1nsnc1N1CCOCC1.O=C(O)/C=C\\C(=O)O [TIMOLOL MALEATE]"
observed = "Compound NOT metabolized"

[[record]]
molecule = "CC[C@H](C)C(=O)O[C@H]1CCC=C2C=C[C@H](C)[C@H](CC[C@@H]3C[C@@H](O)CC(=O)O3)[C@H]21"
observed = "Compound metabolized"

[[record]]
molecule = "CCN(C)C(=O)Oc1cccc([C@H](C)N(C)C)c1.O=C(O)C(O)C(O)C(=O)O [RIVASTIGMINE TARTRATE]"
observed = "Compound NOT metabolized"

[[record]]
molecule = "CN(C)CCC=C1c2ccccc2COc2ccccc21 [DOXEPIN]"
observed = "Compound metabolized"

[[record]]
molecule = "COC1=C(OC)C(=O)C(CCCCCCCCCCO)=C(C)C1=O"
observed = "Compound metabolized"

[[record]]
molecule = "Cc1ccccc1C(OCCN(C)C)c1ccccc1.O=C(O)CC(O)(CC(=O)O)C(=O)O (stereo not given) [ORPHENADRINE CITRATE]"
observed = "Compound metabolized"

[[record]]
molecule = "COc1ccnc(C[S+]([O-])c2nc3ccc(OC(F)F)cc3[nH]2)c1OC (stereo not given)"
observed = "Compound metabolized"

[[record]]
molecule = "CC(C)C[C@H]1C(=O)N2CCC[C@H]2[C@]2(O)O[C@](NC(=O)[C@@H]3C=C4c5cccc6[nH]c(Br)c(c56)C[C@H]4N(C)C3)(C(C)C)C(=O)N12.CS(=O)(=O)O [BROMOCRIPTINE MESYLATE]"
observed = "Compound metabolized"

[[record]]
molecule = "OCCN(CCO)c1nc(N2CCCCC2)c2nc(N(CCO)CCO)nc(N3CCCCC3)c2n1"
observed = "Compound metabolized"

[[record]]
molecule = "CCCN(CCC)CCc1cccc2c1CC(=O)N2"
observed = "Compound NOT metabolized"

[[record]]
molecule = "CN(C)CCOC(C)(c1ccccc1)c1ccccn1.O=C(O)CCC(=O)O (stereo not given) [DOXYLAMINE SUCCINATE]"
observed = "Compound NOT metabolized"

[[record]]
molecule = "CC1=C(CC(=O)O)c2cc(F)ccc2/C1=C\\c1ccc([S+](C)[O-])cc1 (stereo not given)"
observed = "Compound metabolized"

[[record]]
molecule = "CC(=O)OCC(=O)[C@@]1(OC(C)=O)[C@@H](C)C[C@H]2[C@@H]3C[C@H](F)C4=CC(=O)C=C[C@]4(C)[C@@]3(F)[C@@H](O)C[C@@]21C [DIFLORASONE DIACETATE]"
observed = "Compound NOT metabolized"

[[record]]
molecule = "CC(N)C12CC3CC(CC(C3)C1)C2 (stereo not given)"
observed = "Compound NOT metabolized"

[[record]]
molecule = "CC1Cc2ccccc2N1NC(=O)c1ccc(Cl)c(S(N)(=O)=O)c1 (stereo not given) [INDAPAMIDE]"
observed = "Compound NOT metabolized"

